B1: MLL5 (parent)
chain: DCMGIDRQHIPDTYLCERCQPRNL

Variants of: B1
run-description: protein stability index of a GFP-peptide fusion (GPS, HEK-293T) (PSI 1-6); higher = more stable;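 note: lentivirally expressed fusions sorted by FACS into six bins by GFP to DsRed ratio, PSI derived from sequencing read proportions per bin multiplied by bin number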
stated-conditions: c terminus: a fixed tail appended
Binary call on protein stability index: Criterion met from 3 upward, Criterion not met beneath that.

    mutant_designation           category
 0                C19V  Criterion not met
 1                 H9I  Criterion not met
 2                 I5G      Criterion met
 3                D12A  Criterion not met
 4                 R7I  Criterion not met
 5                R18T      Criterion met
 6                E17R  Criterion not met
 7                 G4D      Criterion met
 8                N23V  Criterion not met
 9                D12K  Criterion not met
10                 H9G  Criterion not met
11                R22W  Criterion not met
12                 G4N  Criterion not met
13                R18A  Criterion not met
14                 I5E      Criterion met
15                R22H  Criterion not met
16                 C2H      Criterion met
17                Y14E      Criterion met
18                 R7V  Criterion not met
19                I10Y      Criterion met
20                T13I  Criterion not met
21                 G4R  Criterion not met
22                 R7K  Criterion not met
23                R22F  Criterion not met
24                 C2V  Criterion not met
25                 M3L  Criterion not met
26                T13S      Criterion met
27                L15W  Criterion not met
28                Q20A  Criterion not met
29                Y14G      Criterion met
30                 D1A  Criterion not met
31                T13F  Criterion not met
32                N23T  Criterion not met
33                 G4A  Criterion not met
34                P21C      Criterion met
35                 D6V  Criterion not met
36                 I5S  Criterion not met
37                 D1S      Criterion met
38                 Q8S      Criterion met
39                D12F  Criterion not met
40                T13M  Criterion not met
41                 D1V  Criterion not met
42                 R7D      Criterion met
43                R22V  Criterion not met
44                C19T      Criterion met
45                R18Y  Criterion not met
46                C19S      Criterion met
47                Y14A      Criterion met
48                 C2S  Criterion not met
49                T13L  Criterion not met
50                E17K  Criterion not met
51                C16R      Criterion met
52                R18C  Criterion not met
53                I10H      Criterion met
54                 R7A  Criterion not met
55                I10V  Criterion not met
56                C19E      Criterion met
57                C19P      Criterion met
58                E17D      Criterion met
59                Y14P      Criterion met
60                C19K      Criterion met
61                C16Q      Criterion met
62                P11E      Criterion met
63                 C2T      Criterion met
64                 Q8F  Criterion not met
65                P11M  Criterion not met
66                 Q8H  Criterion not met
67                 H9W  Criterion not met
68                D12S  Criterion not met
69                 D6E  Criterion not met
70                 Q8D  Criterion not met
71                 C2W  Criterion not met
72                 Q8P      Criterion met
73                Y14N      Criterion met
74                 G4F  Criterion not met
75                C16M      Criterion met
76                L24A      Criterion met
77                C16I      Criterion met
78                 H9F  Criterion not met
79                Y14I      Criterion met
80                L24D      Criterion met
81                 D1N  Criterion not met
82                Q20N      Criterion met
